- Target or test system: human CD33 variant R122E (human, UniProt P20138 18-364)
- Sequence (P20138 18-364 R122E limits assumed): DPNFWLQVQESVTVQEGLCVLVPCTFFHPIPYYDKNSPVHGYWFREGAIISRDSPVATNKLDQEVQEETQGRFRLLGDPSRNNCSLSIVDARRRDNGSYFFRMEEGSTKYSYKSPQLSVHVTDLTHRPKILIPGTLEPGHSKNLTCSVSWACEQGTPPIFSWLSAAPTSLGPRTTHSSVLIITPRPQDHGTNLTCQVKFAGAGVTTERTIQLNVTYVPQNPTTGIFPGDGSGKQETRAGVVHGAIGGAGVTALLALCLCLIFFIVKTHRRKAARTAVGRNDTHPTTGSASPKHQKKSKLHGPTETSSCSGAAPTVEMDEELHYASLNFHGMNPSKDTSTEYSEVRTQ
- Protocol description: flow cytometry, IgG on cells expressing the mutant
Measured metric: Mean % WT Binding

Param item = Refmab #4 (antibody, human IgG1, V domains shown, Tested in IgG format; human IgG1 Fc silent (PG-LALA)) VH: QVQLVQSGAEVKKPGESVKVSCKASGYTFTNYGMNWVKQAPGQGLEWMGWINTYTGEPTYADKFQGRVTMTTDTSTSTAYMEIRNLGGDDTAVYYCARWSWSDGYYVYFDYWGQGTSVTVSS VL: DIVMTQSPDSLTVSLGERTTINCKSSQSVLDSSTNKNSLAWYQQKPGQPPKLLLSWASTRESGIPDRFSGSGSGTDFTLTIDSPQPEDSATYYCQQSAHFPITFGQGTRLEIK ; retrieve measured Mean % WT Binding.
79.2 % of WT
